Below are Ki values recorded for Rhodesain (Trypanosoma brucei rhodesiense).
observable: Ki

- CC(C)C[C@@H](/C=C/[N+](=O)[O-])NC(=O)[C@H](Cc1ccccc1)NC(=O)OCc1ccccc1: 6.5 nM
- O=C(N[C@@H](Cc1ccccc1)C(=O)N[C@H](/C=C/[N+](=O)[O-])Cc1ccccc1)OCc1ccccc1: 29 nM
- C/C(=C\[C@H](C)NC(=O)[C@H](Cc1ccccc1)NC(=O)OCc1ccccc1)[N+](=O)[O-]: 50 nM
